assay: chemical genetic growth profiling, strain panel (AID 1159580);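 further: tested at 20 µM; growth read once vehicle control cultures reached saturation at 30 °C; 1 = growth at the plate median or of vehicle wells; lower values mean less growth of the strain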; conditions: S. cerevisiae deletion strains, growth OD, locus YLR384C, strain iki3
The campaign covered roughly 5,500 compounds. About 2,000 (36%) were called active. Roughly 18% stayed inconclusive and do not appear here. No stated cut-off is given here; in the data, active means normalized growth mostly below about 0.91 (no sharp cut-off); inconclusive means no clear call, values can overlap the other calls; inactive means mostly above about 0.92. The list shows a part of the results.
Tick one outcome: 1 (yes) = active, 0 (no) = inactive

{"columns": ["compound", "discrete.label"],
 "data": [
  ["COCC1=C(C(=O)OC(C)OC(=O)OC(C)C)N2C(=O)[C@@H](NC(=O)/C(=N\\OC)c3csc(N)n3)[C@H]2SC1 (some centres not stated)", "0 (no)"],
  ["O=C1C=C(O)c2ccccc2C1=O", "0 (no)"],
  ["O=C1c2cccc(O)c2C(=O)c2c(O)cccc21", "0 (no)"],
  ["O=C(O)CC[N+](=O)[O-]", "0 (no)"],
  ["Cc1cc(O)c2c(c1)C(=O)c1cccc(O)c1C2=O", "0 (no)"],
  ["CNC(=O)Oc1ccccc1OC(C)C", "0 (no)"],
  ["O=C1C=CC(=O)c2ccccc21", "1 (yes)"],
  ["COC(=O)C[C@H]1C(C)(C)[C@@H](OC(C)=O)[C@@H]2CC3=C4CC(=O)O[C@@H](c5ccoc5)[C@]4(C)CCC3[C@@]1(C)C2=O (some centres not stated)", "0 (no)"],
  ["COc1cc2c(cc1OC)C(C)NCC2 (configuration not stated)", "0 (no)"],
  ["COc1ccc([C@@H](C)C(=O)c2ccc(O)cc2O)cc1", "0 (no)"]
]}

Recorded call for C=CC[C@@H]1/C=C(\C)C[C@H](C)C[C@H](OC)[C@H]2O[C@@](O)(C(=O)C(=O)N3CCCC[C@H]3C(=O)O[C@H](/C(C)=C/[C@@H]3CC[C@@H](O)[C@H](OC)C3)[C@H](C)[C@@H](O)CC1=O)[C@H](C)C[C@@H]2OC ?
0 (no)

// return assay outcome for CC(C)c1cc2c(c(O)c1O)[C@@]1(C(=O)O)CCCC(C)(C)C1CC2 (some centres not stated)
0 (no)

Query: recorded result category for CC1(C)CC23C(=O)CCC(O)C2(C)CCC13 (configuration not stated) in this test
0 (no)

Outcome? C[N+]12CCC(CC1)C(OC(=O)C(O)(c1ccccc1)c1ccccc1)C2 (configuration not stated)
0 (no)

Please share the test call associated with CC(=O)Nc1c(I)cc(I)c(C(=O)O)c1I .
0 (no)

In this assay, the call recorded for O=C1NS(=O)(=O)c2ccccc21 was what?
0 (no)

Please let me know the test result on file for CCCCN(CC)c1c([N+](=O)[O-])cc(C(F)(F)F)cc1[N+](=O)[O-] .
0 (no)

Called result for O=C(Nc1ccc([N+](=O)[O-])cc1Cl)c1cc(Cl)ccc1O
1 (yes)

Just curious, what result did CN1CCCCC1c1ccc(-c2cccnc2)nc1 (configuration not stated) get here?
0 (no)

For CC(=O)OC[C@@]1(O)C[C@@]23CCC4c5ccoc5CC[C@]4(C)C2CC[C@@H]1C3 (some centres not stated) , what call appears in the results of this test?
0 (no)

What classification did NC(Cc1ccc(Cl)cc1)C(=O)O (configuration not stated) end up with in this test?
0 (no)

Just curious, what result did CNC(C)(C)Cc1ccccc1 get here?
0 (no)

Can you look up the reported call for CCCN(CCC)c1c([N+](=O)[O-])cc(C(F)(F)F)cc1[N+](=O)[O-] for me?
0 (no)

// outcome(item) with item = O=C1C=CC(=O)c2c(O)cccc21
0 (no)

In this assay, the call recorded for COc1cc(O)ccc1C(C)=O was what?
0 (no)

// return assay outcome for O=C1c2ccccc2C(=O)c2ccccc21
0 (no)

What classification did CC(C)N1C(=O)c2ccccc2NS1(=O)=O end up with in this test?
0 (no)
